assay: Cytotoxicity against Sprague-Dawley rat Cerebral cortex neuron assessed as LDH activity at 1 uM incubated for 24 hrs by LDH assay (reference value: […]); type: tissue-based
Measured Activity, listed per entry.
Report the figure in mU/ml without appending any unit label.

[[record]]
molecule = "O=C(CCCCC1CCSS1)OC1CCN(Cc2ccccc2)CC1 (stereo unspecified)"
value = 0.26


input: Endpoint output: Activity of COc1ccc(CN2CCC(OC(=O)CCCCC3CCSS3)CC2)cc1 (stereo unspecified) . Value?
output: 0.29

input: Another molecule to check: O=C(CCCC[C@@H]1CCSS1)N1CCN(Cc2ccccc2)CC1
output: 0.32

input: Next up: O=C(CCCCC1CCSS1)OC1CCN(Cc2ccc(F)cc2)CC1 (stereo unspecified)
output: 0.3

input: Now the same for O=C(CCCCC1CCSS1)N1CCN(Cc2ccc(F)cc2)CC1 (stereo unspecified)
output: 0.28

input: Check O=C(CCCC[C@@H]1CCSS1)OC1CCN(Cc2ccccc2)CC1 too.
output: 0.28

* * *

assay: Stability of compound in rat plasma assessed as rate of compound hydrolysis by HPLC-UV assay; type: ADME, cell-free
Below: a set of entries, each annotated with reported Drug degradation.
# include the unit after the value

Example results:
[[record]]
molecule = "O=C(CCCCC1CCSS1)N1CCN(Cc2ccc(F)cc2)CC1 (centres undefined)"
property_measured = "Drug degradation"
value = "0.237 h⁻¹"

[[record]]
molecule = "O=C(CCCCC1CCSS1)OC1CCN(Cc2ccc(F)cc2)CC1 (centres undefined)"
property_measured = "Drug degradation"
value = "1.238 h⁻¹"


input: Give its Drug degradation value. Item: COc1ccc(CN2CCC(OC(=O)CCCCC3CCSS3)CC2)cc1 (centres undefined)
output: 1.506 h⁻¹

input: Field entry: COc1ccc(CN2CCN(C(=O)CCCCC3CCSS3)CC2)cc1 (centres undefined)
output: 0.168 h⁻¹

* * *

assay: Cytotoxicity against Sprague-Dawley rat Cerebral cortex neuron assessed as LDH activity at 25 uM incubated for 24 hrs by LDH assay (reference value: […]); type: tissue-based
In this section we review reported Activity values for a set of molecules.
I only need the number, in mU/ml, no unit after it.

Solved cases below.
[[record]]
molecule = "O=C(CCCC[C@@H]1CCSS1)N1CCN(Cc2ccccc2)CC1"
result_units = "mU/ml"
value = 0.3

[[record]]
molecule = "O=C(O)CCCC[C@@H]1CCSS1"
result_units = "mU/ml"
value = 0.27


Query molecule follows.
input: Reported Activity, molecule O=C(CCCCC1CCSS1)OC1CCN(Cc2ccccc2)CC1 (stereo not drawn) : ____
output: 0.32

* * *

assay: Stability of compound in fasted state stimulated intestinal fluid at pH 7.4 assessed as half life in presence of 40 mg/ml pancreatin by HPLC-UV assay; type: ADME; details: fasted state simulated intestinal fluid with pancreatin
Assign labels as follows, please: Satisfied for half-life below 3 h; Not satisfied for half-life equal to or exceeding 3 h.

Here are 4 compounds together with their reported answers.
[[record]]
compound = "COc1ccc(CN2CCN(C(=O)CCCCC3CCSS3)CC2)cc1 (stereo not given)"
class_name = "Not satisfied"

[[record]]
compound = "O=C(CCCCC1CCSS1)N1CCN(Cc2ccccc2)CC1 (stereo not given)"
class_name = "Not satisfied"

[[record]]
compound = "O=C(CCCCC1CCSS1)N1CCN(Cc2ccc(F)cc2)CC1 (stereo not given)"
class_name = "Not satisfied"

[[record]]
compound = "O=C(CCCCC1CCSS1)OC1CCN(Cc2ccccc2)CC1 (stereo not given)"
class_name = "Satisfied"


input: Below 3 h on half-life? Entry COc1ccc(CN2CCC(OC(=O)CCCCC3CCSS3)CC2)cc1 (stereo not given)
output: Satisfied
